Measured Kb by item
- target system: human EP2 receptors (Homo sapiens)
- Construct: expressed in transfected cells
- Sequence (P43116 whole entry): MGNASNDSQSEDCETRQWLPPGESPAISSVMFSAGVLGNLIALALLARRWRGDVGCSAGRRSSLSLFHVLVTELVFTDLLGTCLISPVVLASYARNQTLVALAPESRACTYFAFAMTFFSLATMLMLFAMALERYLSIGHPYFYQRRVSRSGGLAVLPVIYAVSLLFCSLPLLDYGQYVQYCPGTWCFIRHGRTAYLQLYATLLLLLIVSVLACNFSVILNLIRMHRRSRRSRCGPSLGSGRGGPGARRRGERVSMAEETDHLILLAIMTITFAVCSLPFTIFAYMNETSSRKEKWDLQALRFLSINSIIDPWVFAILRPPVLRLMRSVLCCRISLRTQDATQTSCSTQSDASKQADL
- measurement description: cell-based cAMP TR-FRET assay, rightward shift of PGE2 concentration response curve (Schild KB), EP2
- setup conditions: Table 1; Schild KB from single antagonist concentration 1 μM; average of 2-3 measurements in duplicate; read-out: EP2 KB
Give the value in nM but do not write nM after it.

1) CCN(CC)c1ccc(C(=O)NCCn2c(C)cc3ccccc32)cc1OC :: 61.2
2) CCCCN(CCCC)c1ccc(C(=O)NCCn2c(C)cc3ccccc32)cc1 :: 68.8
3) Cc1cc2ccccc2n1CCNC(=O)c1cccc(N2CCN(C)CC2)c1 :: 770

Exam item: Item CCOC(=O)C1CCN(c2ccc(C(=O)NCCn3c(C)cc4ccccc43)cc2)CC1 with human EP2 receptors (Homo sapiens) - Kb?
Marked response: 500

Exam item: Quick one: COc1ccc(C(=O)NCCn2c(C)cc3ccccc32)cc1
Marked response: 75.6

Exam item: Quick one: CC(=O)Nc1ccc(C(=O)NCCn2c(C)cc3ccccc32)cc1F
Marked response: 530

Exam item: Quick one: Cc1cc2ccccc2n1CCNC(=O)c1ccc(C2CCCCC2)cc1
Marked response: 120

Exam item: Quick one: CCN(CC)C(=O)c1ccc(C(=O)NCCn2c(C)cc3ccccc32)cc1
Marked response: 800

Exam item: Quick one: CC(=O)N1CCN(c2ccc(C(=O)NCCn3c(C)cc4ccccc43)cc2)CC1
Marked response: 50.2

Exam item: Quick one: Cc1[nH]c2ccccc2c1CCNC(=O)c1cnc(N2CCOCC2)nc1
Marked response: 280

Exam item: Quick one: Cc1cc2ccccc2n1CCNC(=O)c1ccc(CN)cc1
Marked response: 690

Exam item: Quick one: Cc1cc2ccccc2n1CCNC(=O)c1ccc(C#N)c(F)c1
Marked response: 140

Exam item: Quick one: Cc1cc2ccccc2n1CCNC(=O)c1ccc(CN2CCOCC2)cc1
Marked response: 970

Exam item: Quick one: Cc1cc2ccccc2n1CCNC(=O)c1nc2cc(F)ccc2[nH]1
Marked response: 130

Exam item: Quick one: COc1ccc(C(=O)NCCn2c(C)cc3ccccc32)cc1OC
Marked response: 22.3

Exam item: Quick one: Cc1cc2ccccc2n1CCNC(=O)c1ccc(C2CCCN(C(=O)OC(C)(C)C)C2)cc1 (stereo not shown)
Marked response: 95
